System: endogenous TFE3
Test: TFE3 nuclear translocation, immunocytochemistry high-content imaging
Format: cell-based
Conditions: PKIS2 primary screening
experimental_readout: TFE3 % (%)
Provide the reading as a plain figure in %.

For Cc1ccc(NC(=O)Nc2cccc(Cl)c2)cc1-c1ccc(C(=O)Nc2ccncc2)cc1 [UNC10225019A] , what is its reported TFE3 %?
11.19

Consider the compound shown here: CS(=O)(=O)Nc1ccc(-c2ccnc3[nH]ccc23)cc1 [UNC10225427A] What is its recorded TFE3 %?
8.99

Name the recorded TFE3 % for COc1cccc(-n2cnc3c(N)ncnc32)c1 [UNC10225454A] .
8.30

Bench note: what TFE3 % did Cl.Nc1ncnc2occ(-c3ccc(NC(=O)Nc4cc(C(F)(F)F)ccc4F)cc3)c12 [UNC10112792A] show?
17.19

// TFE3 % lookup, key: COc1cc(Nc2ccnc3cc(-c4ccncc4)ccc23)cc(OC)c1OC.Cl [UNC10225049A]
16.25

Name the recorded TFE3 % for CSc1nn2c(=O)cc(N3CCOCC3)nc2n1Cc1cccc(Cl)c1Cl [UNC10225435A] .
19.82

Dear colleague, I am looking for the recorded TFE3 % of the following compound: Fc1ccc(-c2ncn(CCCN3CCOCC3)c2-c2cccnc2)cc1 [UNC10225320A]
16.30

Would you mind telling me what TFE3 % value was observed for c1ccc(Oc2ccc(Nc3ccnc4cc(-c5ccc(CN6CCCCC6)o5)ccc34)cc2)nc1 [UNC10225094A] ?
31.67

Report TFE3 % for COc1cc2ncn(-c3cc(OCc4ccncc4Br)c(C(N)=O)s3)c2cc1OC [UNC10225386A] please.
3.25

Look up TFE3 %: Fc1cc(Cl)ccc1Nc1ccnc2cc(-c3ccc(CN4CCOCC4)o3)ccc12 [UNC10225106A]
18.79

Reported TFE3 %, compound CS(=O)(=O)CCNCc1ccc(-c2ccc3ncnc(Nc4ccc(OCc5ccccc5)c(Cl)c4)c3c2)o1.Cl [UNC10112604A] : ____
24.66

Quick check: TFE3 % of Fc1cc(Cl)ccc1Nc1ccnc2cc(-c3ccc(CN4CCSCC4)o3)ccc12 [UNC10225290A] ?
15.63

What value of TFE3 % has been recorded for this entry: O=c1cc(N2CCOCC2)nc2n(Cc3cccc(Cl)c3Cl)c3ccccc3n12 [UNC10225136A]
23.04

# get_value(readout='TFE3 %', item= CN(C)CCOc1ccc(-c2cc(-c3c[nH]nc3-c3ccccn3)ccn2)cc1 [UNC10225226A] )
7.10

Quick one: TFE3 % for Cl.Cl.NC[C@H](Cc1ccc(C(F)(F)F)cc1)NC(=O)c1cc(Br)c(-c2ccnc3[nH]ccc23)s1 [UNC10225108A] ?
23.22

For COC(=O)c1cccc(NC(=O)NC2CCN(c3ccnc(NCc4ccc(F)cc4)n3)CC2)c1 [GSK1379860] , what is its reported TFE3 %?
10.41

Fill blank: measured TFE3 % of the compound CN(C)Cc1ccc(-c2ccc3c(Nc4ccc(Oc5ccccn5)cc4)ccnc3c2)o1 [UNC10225428A] is ____.
34.27

* * *

System: endogenous TFE3
Assay: TFE3 nuclear translocation, immunocytochemistry high-content imaging
Type: cell-based
Settings: TFE3 assay concentration response, 24 h, SH-SY5Y
Hi there, I'd appreciate the recorded Best-Fit Values Span for every entry that follows.

Form: Entry = Cc1cccc(-c2nc(Oc3ccc4scnc4c3)c3ccccc3n2)n1 [NK220] | System = endogenous TFE3 | Best-Fit Values Span = ____
0.80

Could you share what Best-Fit Values Span was measured for Cc1cccc(-c2nc(Nc3ccc4nn(C)nc4c3)c3ccccc3n2)n1 [NK223] , tested on endogenous TFE3?
88.41

Give recorded Best-Fit Values Span with endogenous TFE3 for the following molecule: Cc1cccc(-c2nc(Nc3ccc4[nH]ccc4c3)c3ccccc3n2)n1 [NK218]
20.78

Query Best-Fit Values Span on endogenous TFE3 for Cc1cccc(-c2nc(Nc3ccncc3)c3ccccc3n2)n1 [NK215]
18.17

What reported Best-Fit Values Span corresponds to Cc1cccc(-c2nc(Nc3ccc4ccsc4c3)c3ccccc3n2)n1 [NK219] on endogenous TFE3?
44.67

Lab note: need Best-Fit Values Span with endogenous TFE3 for entry Cc1cccc(-c2nc(Nc3ccc4ncn(C)c4c3)c3ccccc3n2)n1 [NK173] , please look it up.
80.89

What value of Best-Fit Values Span on endogenous TFE3 does Cc1cccc(-c2nc(Nc3ccc4ncsc4c3)c3ccccc3n2)n1 [NK140] have?
37.55
